Test system: RAW-Dual (murine macrophage reporter line)
Procedure Text: NF-kB reporter (SEAP) activity fold change vs agonist alone; higher = enhanced NF-kB activity
Measurement Parameters: modulator concentration 10 µM; agonist: CpG ODN 1826 0.5 ug/mL
Quantity Kind: NF-kB reporter
Output spec: single numeric token, no unit.

Worked examples follow.
> print(dat)
                                   compound  reported
1  COC12CC(COC(=O)c3cncc(Br)c3)CN(C)C1Cc1cn(C)c3cccc2c13 (stereo not drawn)      1.02
2                      CN(C)CCC(=O)c1ccccc1     0.736
3  CC(NC(C)(C)C)C(=O)c1cccc(Cl)c1.Cl (stereo not drawn)     0.906

Req: Tell me the measured NF-kB reporter of CN1CC(CNC(=O)OCc2ccccc2)CC2c3cccc4c3c(cn4C)CC21 (stereo not drawn) , please.
Resp: 1.02

Req: Quick one: Cc1cc(C(=O)N2C3CCC2c2cncnc2C3)c(C)o1 (stereo not drawn)
Resp: 1.03

Req: Repeat with Cc1ccccc1N1C(=O)C(=Cc2ccc(-c3ccc(C(=O)O)c(Cl)c3)o2)C(=O)NC1=S
Resp: 0.617

Req: Cool, now C#CCOc1ccc(C=C2C(=O)NC(=O)N(c3cc(OC)c(Cl)cc3OC)C2=O)cc1Cl
Resp: 1.1

Req: Request: CCCCCC(=O)NC(Oc1ccc([N+](=O)[O-])cc1)C(Cl)(Cl)Cl (stereo not drawn)
Resp: 0.988

Req: Now this one: COc1ccc(CCNCc2ccc3ccccc3c2)cc1
Resp: 0.853

Req: Please answer likewise for CCCC(=O)c1ccc(N2CCNCC2)c(F)c1
Resp: 0.404

Req: Entry to check: COc1ccc(CNCCc2c[nH]c3ccccc23)cc1OC
Resp: 0.397

---

Test system: RAW-Dual (murine macrophage reporter line)
Procedure Text: NF-kB reporter (SEAP) activity fold change vs agonist alone; higher = enhanced NF-kB activity
Measurement Parameters: modulator concentration 10 µM; agonist: LPS 0.1 ug/mL
Quick rule for you: NF-kB reporter at 1 or higher means condition met, lower means condition not met.

Solved entries:
> print(dat)
                               molecule                               target.desc              class
1          O=C(NCCN1CCOCC1)c1ccc(Cl)nc1  RAW-Dual (murine macrophage reporter line)      condition met
2        CCC1(c2c[nH]cn2)Cc2ccccc2C1.Cl  RAW-Dual (murine macrophage reporter line)      condition met
3      COc1ccc(CCNCc2cccc3ccccc23)cc1OC  RAW-Dual (murine macrophage reporter line)  condition not met
4  O=C(O)c1nn(Cc2ccc(Cl)cc2Cl)c2ccccc12  RAW-Dual (murine macrophage reporter line)  condition not met

Req: Tell me whether NF-kB reporter is at least 1 here: Cl.Clc1ccc(C(OCCN2CCCCC2)c2ccccc2)cc1 (configuration not stated)
Resp: condition not met

Req: Okay, and COC(=O)COc1ccc(C=C2C(=O)NC(=S)N(c3cccc(Cl)c3Cl)C2=O)cc1OC ?
Resp: condition met

Req: Try this molecule next: CC12CCC3C(CCC4CC(=O)CCC43C)C1CCC2=O (configuration not stated)
Resp: condition met

---

Tested on: RAW-Dual (murine macrophage reporter line)
Procedure Text: viability score (confluency relative to resting cells, overnight) (fraction); higher = more viable, active = viable (0.7 or more)
Measurement Parameters: modulator concentration 10 µM
Quantity Kind: viability score
Kindly provide the number alone.

Example entries and their recorded answers appear below.
> print(dat)
                                   molecule    quantity.kind  reported
1  COc1cc2c(cc1O)CC1c3c(cc(O)c(OC)c3-2)CCN1C (stereo not given)  viability score     0.999
2  CC[C@@]1(O)C(=O)OCc2c1cc1n(c2=O)Cc2cc3ccccc3nc2-1  viability score     0.768
3  CC(C)N(CCC(C(N)=O)(c1ccccc1)c1ccccn1)C(C)C (stereo not given)  viability score     0.998
4  OCC(O)Cc1ccc2c(c1)OCO2 (stereo not given)  viability score     0.994

Okay, next one:
Req: Quick one: viability score of O=C1NC(=O)N(c2ccccc2F)C(=O)C1=Cc1ccc(OCc2ccc([N+](=O)[O-])cc2)c(Cl)c1 ?
Resp: 1.01

The reported numbers originate from the supplement of paper PMC10646978.
